# TEST SUMMARY: APR_HepG2_CellCycleArrest_24hr: Apredica 24-hour HepG2 Assay for Cell Cycle Arrest (AID 2282905);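 further: cell cycle arrest scored as ratio of 2N to 4N nuclear DNA content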
# PROTOCOL CONDITIONS: imaging, actives raise or lower the signal
Activity calls are given as the source filed them. How the source made its calls: active means hit-call score of the fitted dose curve at least 0.9, where 1 is the maximum; inactive means score below 0.9.
Possible outcomes: YES (active), NO (inactive)

COMPOUND: CCSC(=O)N1CCCCCC1
ASSIGNED LABEL: NO

COMPOUND: O=C(Nc1ccccc1-c1ccc(Cl)cc1)c1cccnc1Cl
ASSIGNED LABEL: NO

COMPOUND: Cc1cc(C)nc(Nc2ccccc2)n1
ASSIGNED LABEL: YES

COMPOUND: CNC(=O)N(C)c1nnc(C(C)(C)C)s1
ASSIGNED LABEL: NO

COMPOUND: Cc1cnc(C2=NC(C)(C(C)C)C(=O)N2)c(C(=O)O)c1 (stereo not given)
ASSIGNED LABEL: NO

====

# Read-out: Interleukin-8 (IL8), CXCL8 (gene 3576)
# TEST SUMMARY: BSK_SAg_IL8: BioMAP Diversity Plus: SAg Assay for Interleukin-8 (IL8) Biomarker Activity (AID 2283094)
# PROTOCOL CONDITIONS: primary human HUVEC with PBMC; actives raise or lower the signal
Calls of active or inactive are those of the source. Rule for the calls: active = hit-call score of the fitted dose curve at least 0.9, where 1 is the maximum; inactive = score below 0.9.
Possible outcomes: 1 for active, 0 for inactive

COMPOUND: CCSC(=O)N1CCCCCC1
ASSIGNED LABEL: 0

COMPOUND: CC1(C)CON(Cc2ccccc2Cl)C1=O
ASSIGNED LABEL: 0

COMPOUND: CCCCOCN(C(=O)CCl)c1c(CC)cccc1CC
ASSIGNED LABEL: 1

COMPOUND: COc1cc(Cl)c(OC)cc1Cl
ASSIGNED LABEL: 0

COMPOUND: O=C(Nc1ccccc1-c1ccc(Cl)cc1)c1cccnc1Cl
ASSIGNED LABEL: 0

COMPOUND: CC(C)NC(=O)N1CC(=O)N(c2cc(Cl)cc(Cl)c2)C1=O
ASSIGNED LABEL: 0

COMPOUND: COC(=O)c1c(C(F)F)nc(C(F)(F)F)c(C2=NCCS2)c1CC(C)C
ASSIGNED LABEL: 0

COMPOUND: CNC(=O)N(C)c1nnc(C(C)(C)C)s1
ASSIGNED LABEL: 0

COMPOUND: CCNP(=S)(OC)O/C(C)=C/C(=O)OC(C)C (stereo unspecified)
ASSIGNED LABEL: 0

COMPOUND: CCCCC(O)(Cn1cncn1)c1ccc(Cl)cc1Cl (stereo unspecified)
ASSIGNED LABEL: 0

COMPOUND: COP(=S)(OC)Oc1ccc([N+](=O)[O-])c(C)c1
ASSIGNED LABEL: 1

COMPOUND: CCCN(CC)CC1COC2(CCC(C(C)(C)C)CC2)O1 (stereo unspecified)
ASSIGNED LABEL: 1

COMPOUND: CC(C)C1(C)N=C(c2ncccc2C(=O)O)NC1=O (stereo unspecified)
ASSIGNED LABEL: 0

COMPOUND: C=C(C)CN(CC)c1c([N+](=O)[O-])cc(C(F)(F)F)cc1[N+](=O)[O-]
ASSIGNED LABEL: 0

COMPOUND: CC(C)(C)C(=O)C(Oc1ccc(Cl)cc1)n1cncn1 (stereo unspecified)
ASSIGNED LABEL: 0

COMPOUND: COP(=S)(OC)SCn1nnc2ccccc2c1=O
ASSIGNED LABEL: 0
